Test description: Selectivity for human matriptase over bovine thrombin
# Ratio Ki per record follows
# output: bare number, no unit

>>> meas_value("CC[C@H](C)[C@@H]1NC(=O)[C@@H]2CCCN2C(=O)[C@@H]2CCCN2C(=O)[C@H]([C@@H](C)CC)NC(=O)[C@H](CO)NC(=O)[C@H](CCCCN)NC(=O)[C@H]([C@@H](C)O)NC(=O)[C@@H]2CSSC[C@H](NC1=O)C(=O)N[C@@H](Cc1ccc(-c3ccccc3)cc1)C(=O)N1CCC[C@@H]1C(=O)N[C@@H](CC(=O)O)C(=O)NCC(=O)N[C@@H](CCCNC(=N)N)C(=O)N2")
25.6
>>> meas_value("CC[C@H](C)[C@@H]1NC(=O)[C@@H]2CCCN2C(=O)[C@@H]2CCCN2C(=O)[C@H]([C@@H](C)CC)NC(=O)[C@H](CO)NC(=O)[C@H](CCCCN)NC(=O)[C@H]([C@@H](C)O)NC(=O)[C@@H]2CSSC[C@H](NC1=O)C(=O)N[C@@H](Cc1c(F)c(F)c(F)c(F)c1F)C(=O)N1CCC[C@@H]1C(=O)N[C@@H](CC(=O)O)C(=O)NCC(=O)N[C@@H](CCCNC(=N)N)C(=O)N2")
37.8
>>> meas_value("CC[C@H](C)[C@@H]1NC(=O)[C@@H]2CCCN2C(=O)[C@@H]2CCCN2C(=O)[C@H]([C@@H](C)CC)NC(=O)[C@H](CO)NC(=O)[C@H](CCCCN)NC(=O)[C@H]([C@@H](C)O)NC(=O)[C@@H]2CSSC[C@H](NC1=O)C(=O)N[C@@H](Cc1ccc3ccccc3c1)C(=O)N1CCC[C@@H]1C(=O)N[C@@H](CC(=O)O)C(=O)NCC(=O)N[C@@H](CCCNC(=N)N)C(=O)N2")
36
>>> meas_value("CC[C@H](C)[C@@H]1NC(=O)[C@@H]2CCCN2C(=O)[C@@H]2CCCN2C(=O)[C@H]([C@@H](C)CC)NC(=O)[C@H](CO)NC(=O)[C@H](CCCCN)NC(=O)[C@H]([C@@H](C)O)NC(=O)[C@@H]2CSSC[C@H](NC1=O)C(=O)N[C@@H](Cc1ccccc1)C(=O)N1CCC[C@@H]1C(=O)N[C@@H](CC(=O)O)C(=O)NCC(=O)N[C@@H](CCCNC(N)=O)C(=O)N2")
37

# context switch: different molecule, same Ratio Ki
Entry `CC[C@H](C)[C@@H]1NC(=O)[C@@H]2CCCN2C(=O)[C@@H]2CCCN2C(=O)[C@H]([C@@H](C)CC)NC(=O)[C@H](CO)NC(=O)[C@H](CCCNC(=N)N)NC(=O)[C@H]([C@@H](C)O)NC(=O)[C@@H]2CSSC[C@H](NC1=O)C(=O)N[C@@H](Cc1ccccc1)C(=O)N1CCC[C@@H]1C(=O)N[C@@H](CC(=O)O)C(=O)NCC(=O)N[C@@H](CCCNC(=N)N)C(=O)N2` ; Ratio Ki = 0.18

====

Test description: Selectivity for human matriptase over bovine thrombin
# Ratio Ki per record follows
# output: bare number, no unit

Below, 5 molecules whose answers are already recorded.
>>> meas_value("CC[C@H](C)[C@@H]1NC(=O)[C@@H]2CCCN2C(=O)[C@@H]2CCCN2C(=O)[C@H]([C@@H](C)CC)NC(=O)[C@H](CO)NC(=O)[C@H](CCCCN)NC(=O)[C@H]([C@@H](C)O)NC(=O)[C@@H]2CSSC[C@H](NC1=O)C(=O)N[C@@H](Cc1ccccc1)C(=O)N1CCC[C@@H]1C(=O)N[C@@H](CC(=O)O)C(=O)NCC(=O)N[C@@H](CCCCNC(=N)N)C(=O)N2")
8.9
>>> meas_value("CC[C@H](C)[C@@H]1NC(=O)[C@@H]2CCCN2C(=O)[C@@H]2CCCN2C(=O)[C@H]([C@@H](C)CC)NC(=O)[C@H](CO)NC(=O)[C@H](CCCCN)NC(=O)[C@H]([C@@H](C)O)NC(=O)[C@@H]2CSSC[C@H](NC1=O)C(=O)N[C@@H](Cc1ccccc1)C(=O)N1CCC[C@@H]1C(=O)N[C@@H](CC(=O)O)C(=O)NCC(=O)N[C@@H](CCCNC(=N)N)C(=O)N2")
50
>>> meas_value("CC[C@H](C)[C@@H]1NC(=O)[C@@H]2CCCN2C(=O)[C@@H]2CCCN2C(=O)[C@H]([C@@H](C)CC)NC(=O)[C@H](CO)NC(=O)[C@H](CCCCN)NC(=O)[C@H]([C@@H](C)O)NC(=O)[C@@H]2CSCSC[C@H](NC1=O)C(=O)N[C@@H](Cc1ccccc1)C(=O)N1CCC[C@@H]1C(=O)N[C@@H](CC(=O)O)C(=O)NCC(=O)N[C@@H](CCCNC(=N)N)C(=O)N2")
62.5
>>> meas_value("CC[C@H](C)[C@@H]1NC(=O)[C@@H]2CCCN2C(=O)[C@@H]2CCCN2C(=O)[C@H]([C@@H](C)CC)NC(=O)[C@H](CO)NC(=O)[C@H](CCCCN)NC(=O)[C@H]([C@@H](C)O)NC(=O)[C@H](CO)NC(=O)[C@H](CCCNC(=N)N)NC(=O)CNC(=O)[C@H](CC(=O)O)NC(=O)[C@H]2CCCN2C(=O)[C@H](Cc2ccccc2)NC(=O)[C@H](CO)NC1=O")
0.38
>>> meas_value("CC[C@H](C)[C@@H]1NC(=O)[C@@H]2CCCN2C(=O)[C@@H]2CCCN2C(=O)[C@H]([C@@H](C)CC)NC(=O)[C@H](CO)NC(=O)[C@H](CCCCCN)NC(=O)[C@H]([C@@H](C)O)NC(=O)[C@@H]2CSSC[C@H](NC1=O)C(=O)N[C@@H](Cc1ccccc1)C(=O)N1CCC[C@@H]1C(=O)N[C@@H](CC(=O)O)C(=O)NCC(=O)N[C@@H](CCCNC(=N)N)C(=O)N2")
1.6

# context switch: different molecule, same Ratio Ki
Entry `CC[C@H](C)[C@@H]1NC(=O)[C@@H]2CCCN2C(=O)[C@@H]2CCCN2C(=O)[C@H]([C@@H](C)CC)NC(=O)[C@H](CO)NC(=O)[C@H](CCCCN)NC(=O)[C@H]([C@@H](C)O)NC(=O)[C@@H]2CSSC[C@H](NC1=O)C(=O)N[C@@H](Cc1ccccc1)C(=O)N1CCC[C@@H]1C(=O)N[C@@H](CC(=O)O)C(=O)NCC(=O)N[C@@H](Cc1ccc(NC(=N)N)cc1)C(=O)N2` ; Ratio Ki = 1.8
